# credit: ChEMBL document CHEMBL1201862

# System: HCC 2998
# test_protocol: NCI tumour cell line growth inhibition, 48 h
Activity calls are given as the source filed them. Cut-off read from the data, not from the text of the source: active = GI50 up to about 1.1 µM and inactive = higher.
The categories you may choose from are 1 (yes) for active, 0 (no) for inactive

Example entries and their recorded answers appear below.
molecule	tested_on	answer_label
O=C(NNC(=S)Nc1ccc(Cl)cc1)c1cc(-c2ccccc2)nc2ccccc12	HCC 2998	0 (no)
COc1cccc2c1C(=O)c1c(O)c3c(c(O)c1C2=O)C[C@](O)(C(=O)CO)CC3OC1CC(N)C(OC2CCCCO2)C(C)O1 (some centres undefined)	HCC 2998	1 (yes)
CN1c2ccccc2S(=O)(=O)n2c(COc3ccccc3)nnc21	HCC 2998	0 (no)

Attention now turns to another entry.
Asked: Write down the call the test reported for this molecule. Item: O=C(/C=C/c1ccc(OCCCOc2ccc(/C=C/C(=O)c3ccc(Cl)cc3)cc2)cc1)c1ccc(Cl)cc1
Given back: 0 (no)
